# Study System: SARS-CoV-2 WA-1 spike receptor binding domain (RBD) (SARS-CoV-2 WA-1 (S identical to …, UniProt P0DTC2))
# Procedure Text: BLI
Outcome Measure: fold higher rate of dissociation (koff) than with WRAIR-2063

Binder	Value Observed
7D6 monoclonal antibody (antibody, V domains shown) VH: EVQLQQSGAELVRPGASVKLSCTASGFNIKDTYIHWVKQRPEQGLEWIGRIDPGDGDTEYDPSFQGKATITADTSSNTAYLELSSLTSEDTAVYYCTRFYDYVDYGMDYWGQGTSVTVSS VL: DIQMTQSPASLSASVGETVTITCRASGNIHNYLAWYQQKQGKSPQLLVYNAKTLADGVPSRFSGSGSGTQYSLKINSLQPEDFGSYYCQHFWSTPPWTFGGGTKLEVK	~10 fold
6D6 monoclonal antibody (antibody, V domains shown) VH: EVQLQQSGAELVKPGASVKLSCTTSGFNIIDTYMHWVKQRPEEGLEWIGGIDPVNGNSEYDPKFQDKATITADTSSNTAYLHLSRLTSEDTAVYYCASAHYYGSSSSFPYWGQGTDLVTVS VL: DIVMTQSQKFMSTSVGDRVSVTCKASQNVGTHVAWYQQKPGQSPKALIYSASYRYSGVPDRFTGSGVGTDFTLTITNVQSEDLAEYFCQQYNSYFTFGSGTKLEIK	~10 fold
WRAIR-2057 monoclonal antibody (antibody, V domains shown) VH: EVQLVQSGAEVKKPGESLKISCKGSGYSFISYWIAWVRQMPGKGLEWMGIIYPGDSDTTYSPSFQGQVTISADKSISTAYLQWSSLKASDTAIYYCARLLYYSDSSPLDSWGQGTLVTVSS VL: DIQMTQSPSSLSASVGDRVTITCRASQSISTYLNWYQQKPGKAPNLLIYAASSLQSGVPSRFSGSGSGTDFTLTISSLQPEDFATYYCQQSHSTPRTFGPGTKVDIK	~10 fold
